Item-by-item account of Relative activity (%), EC50 COM701/EC50 antibody
# ASSAYED SYSTEM: T1, human CD112R on Jurkat CD112R effector cells (human, UniProt Q6DKI7 1-326)
# T1 sequence (looked up): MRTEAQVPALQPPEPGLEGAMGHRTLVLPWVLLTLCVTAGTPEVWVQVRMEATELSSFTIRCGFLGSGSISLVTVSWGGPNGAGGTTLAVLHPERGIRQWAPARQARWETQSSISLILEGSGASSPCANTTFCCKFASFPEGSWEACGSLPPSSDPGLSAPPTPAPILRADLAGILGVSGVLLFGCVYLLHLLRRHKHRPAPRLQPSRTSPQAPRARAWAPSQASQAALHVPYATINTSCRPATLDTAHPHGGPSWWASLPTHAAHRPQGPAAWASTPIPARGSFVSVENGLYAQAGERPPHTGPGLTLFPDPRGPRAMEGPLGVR
# ASSAY NAME: cell-based or functional assay
Expressed in %, but write only the number.

Recorded results for 3 binders are shown here.
>>> experimental_value("Hu47 (antibody, IgG4, V domains shown) VH: EVQLVESGGGLVKPGGSLRLSCAASGFTFSSYHMSWVRQAPGKGLELVSAINSNVISTYYLDTVKGRFTISRDNAKNSLYLQMNSLRAEDTAVYYCARHEDYYGFAMDYWGQGTLVTVSS VL: DIQMTQSPSSLSASVGDRVTITCKASQSVSNDVAWYQQKPGKAPKLLIYYVSNRFTGVPSRFSGSGSGTDFTLTISSLQPEDFATYFCQQAYRSPWTFGQGTKLEIK")
190
>>> experimental_value("Hu12 (antibody, IgG4, V domains shown, humanized IgG4) VH: EVQLVESGGGLVKPGGSLRLSCAASGFTFSSYHMSWVRQAPGKGLELVSAINSNDINTYYLDTVKGRFTISRDIAKNSLYLQMNSLRAEDTAVYYCARHEDYYGFAMDYWGQGTLVTVSS VL: EIVMTQSPPTLSLSPGERVTLSCKASQSVSNDVAWYQQKPGQAPRLLIYYVSNRFTGIPARFSGSGSGTDFTLTISSLQPEDFAVYFCQQAYRSPWTFGQGTKLEIK")
144
>>> experimental_value("Hu3 (antibody, IgG4, V domains shown, humanized IgG4; also called Hu-03) VH: EVQLVESGGGLVQPGGSLRLSCAASGFTFSSYHMSWVRQAPGKGLELVAAINSNDINTYYLDTVKGRFTISRDIAKNSLYLQMNSLRAEDTAVYYCARHEDYYGFAMDYWGQGTLVTVSS VL: EIVMTQSPPTLSLSPGERVTLSCKASQSVSNDVAWYQEKPGQAPRLLIYYVSHRFTGIPARFSGSGSGTDFTLTISSLQPEDFAVYYCHQAYRSPWTFGQGTKLEIK")
189

Note: attention shifts to another entry.
For Hu15 (antibody, IgG4, V domains shown, humanized IgG4) VH: EVQLVESGGGLVKPGGSLRLSCAASGFTFSSYHMSWVRQAPGKGLELVSAISRDGDSTYYPDTVKGRFTISRDNAKNSLYLQMNSLRAEDTAVYYCSRHEDYFGFAMDSWGQGTLVTVSS VL: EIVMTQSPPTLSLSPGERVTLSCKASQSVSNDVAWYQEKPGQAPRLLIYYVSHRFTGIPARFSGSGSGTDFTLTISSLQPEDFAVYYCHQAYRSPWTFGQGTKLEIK , what is its reported Relative activity (%), EC50 COM701/EC50 antibody?
209

Attribution: patent US20240309087A1
